target: UniProt P08631; assay: in vitro Hck tyrosine kinase inhibition; format: biochemical; conditions: 1 uM compound; read-out: % inhibition against Hck
Sequence (P08631 whole entry): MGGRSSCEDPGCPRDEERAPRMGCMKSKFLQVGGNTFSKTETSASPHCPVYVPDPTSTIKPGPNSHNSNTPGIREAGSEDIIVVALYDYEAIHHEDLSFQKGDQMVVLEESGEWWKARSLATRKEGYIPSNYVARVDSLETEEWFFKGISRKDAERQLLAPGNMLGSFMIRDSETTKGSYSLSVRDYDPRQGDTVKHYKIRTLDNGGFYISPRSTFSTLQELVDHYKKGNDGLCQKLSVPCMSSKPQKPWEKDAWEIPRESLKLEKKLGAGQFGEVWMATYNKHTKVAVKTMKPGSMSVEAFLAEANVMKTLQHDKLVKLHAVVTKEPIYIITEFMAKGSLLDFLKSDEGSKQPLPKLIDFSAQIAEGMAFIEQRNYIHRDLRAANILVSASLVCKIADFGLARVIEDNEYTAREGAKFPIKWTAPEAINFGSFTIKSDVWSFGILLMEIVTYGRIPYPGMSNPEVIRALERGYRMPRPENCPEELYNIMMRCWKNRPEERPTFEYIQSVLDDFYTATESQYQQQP
Kindly supply the reported inhibition at 1 µM values for the records listed here.

Please list inhibition at 1 µM recorded for the molecule `COc1cccc(Nc2ncnc3cc(-c4ccc(OCCN5CCOCC5)cc4)sc23)c1`
> 70%

Provide one value: measured inhibition at 1 µM of `CCN(CC)C(=O)Cc1ccc(-c2cc3ncnc(Nc4cccc(O)c4)c3s2)cc1`
> 40%

Give inhibition at 1 µM for the following molecule: `COc1cccc(Nc2ncnc3cc(-c4ccc(OCCc5ccccc5)cc4)sc23)c1`
> 60%

For the molecule `Oc1cccc(Nc2ccnc3cc(-c4cccc(CN5CCNCC5)c4)sc23)c1` , give its measured inhibition at 1 µM value.
> 80%

Given `CN1CCN(Cc2ccc(-c3cc4ncnc(Nc5cccc(O)c5)c4s3)cc2)CC1` , respond with its inhibition at 1 µM.
> 80%

Please supply the value of reported inhibition at 1 µM for the item `Oc1cccc(Nc2ccnc3cc(-c4ccc(CN5CCCC5)cc4)sc23)c1`
> 60%

Supply recorded inhibition at 1 µM for `CN1CCN(C(=O)c2ccc(-c3cc4ncnc(Nc5cccc(O)c5)c4s3)cc2)CC1` here.
> 60%

Specify measured inhibition at 1 µM for `CCNCc1ccc(-c2cc3ncnc(Nc4cccc(O)c4)c3s2)o1` .
> 70%

Using the record for `Cl.Oc1cccc(Nc2ncnc3cc(-c4cccc(CN5CCNCC5)c4)sc23)c1` , state its measured inhibition at 1 µM.
> 80%

Determine its reported inhibition at 1 µM: `CN1CCN(C(=O)c2cccc(-c3cc4ncnc(Nc5cccc(O)c5)c4s3)c2)CC1`
> 50%

Answer with the recorded inhibition at 1 µM for the molecule listed here: `CN1CCN(Cc2cccc(-c3cc4ncnc(Nc5cccc(O)c5)c4s3)c2)CC1.Cl`
> 80%

Determine from records and report inhibition at 1 µM for `Oc1cccc(Nc2ncnc3cc(-c4ccc(CNC5CC5)cc4)sc23)c1`
> 80%

Quick one: give measured inhibition at 1 µM for `CN1CCN(Cc2ccc(-c3cc4ncnc(Nc5cccc(O)c5)c4s3)o2)CC1`
> 70%

Report inhibition at 1 µM for `Cl.Oc1cccc(Nc2ncnc3cc(-c4cccc(CN5CCCCC5)c4)sc23)c1`
> 80%

Please supply the value of reported inhibition at 1 µM for the item `COc1cccc(Nc2ncnc3cc(-c4ccoc4)sc23)c1`
> 30%

Identify measured inhibition at 1 µM associated with `Oc1cccc(Nc2ncnc3cc(-c4cc(CN5CCCC5)co4)sc23)c1`
> 50%

Specify measured inhibition at 1 µM for `Oc1cccc(Nc2ncnc3cc(-c4ccc(N5CCOCC5)cc4)sc23)c1` .
> 70%

Specify reported inhibition at 1 µM for the molecule shown: `Oc1cccc(Nc2ncnc3cc(-c4ccc(CCN5CCCCC5)cc4)sc23)c1`
> 30%

* * *

Provide the recorded inhibition at 1 µM for the entries that follow.
target: Fgr tyrosine kinase (Homo sapiens (Human), UniProt P09769); experiment: in vitro Fgr tyrosine kinase inhibition; format: biochemical; settings: 1 uM compound; read-out: % inhibition against Fgr
Sequence (P09769 whole entry): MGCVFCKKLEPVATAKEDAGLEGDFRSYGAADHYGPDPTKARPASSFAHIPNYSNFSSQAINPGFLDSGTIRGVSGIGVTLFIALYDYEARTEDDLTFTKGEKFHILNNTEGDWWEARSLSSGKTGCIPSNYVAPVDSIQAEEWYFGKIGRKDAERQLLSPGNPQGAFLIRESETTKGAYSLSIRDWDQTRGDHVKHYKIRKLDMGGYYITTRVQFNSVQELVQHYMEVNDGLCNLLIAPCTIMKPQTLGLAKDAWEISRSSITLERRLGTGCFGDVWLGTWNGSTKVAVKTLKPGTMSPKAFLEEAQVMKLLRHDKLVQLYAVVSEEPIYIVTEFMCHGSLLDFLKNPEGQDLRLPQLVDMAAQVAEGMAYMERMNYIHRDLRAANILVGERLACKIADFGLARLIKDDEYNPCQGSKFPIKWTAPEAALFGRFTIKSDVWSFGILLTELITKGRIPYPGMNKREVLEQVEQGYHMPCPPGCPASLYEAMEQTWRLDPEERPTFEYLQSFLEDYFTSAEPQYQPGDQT

Return the recorded inhibition at 1 µM value; entry: `CC(C)CNCc1ccc(-c2cc3ncnc(Nc4cccc(O)c4)c3s2)cc1`
> 80%

Query inhibition at 1 µM for `CN1CCN(Cc2csc(-c3cc4ncnc(Nc5cccc(O)c5)c4s3)c2)CC1`
> 60%

Look up inhibition at 1 µM of `Oc1cccc(Nc2ncnc3cc(-c4ccsc4)sc23)c1` and report it.
> 40%

Complete the entry with inhibition at 1 µM for `CN1CCN(C(=O)c2cccc(-c3cc4ncnc(Nc5cccc(O)c5)c4s3)c2)CC1`
> 50%

Note inhibition at 1 µM for the compound shown: `Cl.Oc1cccc(Nc2ncnc3cc(-c4ccc(CN5CCCC5)cc4)sc23)c1`
> 80%

Give the reported inhibition at 1 µM for this compound. `Oc1cccc(Nc2ncnc3cc(-c4ccc(CN5CCOCC5)o4)sc23)c1`
> 70%
